System Name: T1, human LAG3 expressed on cells (human, UniProt P18627 23-525)
T1 construct: whole, on cells
T1 sequence (looked up): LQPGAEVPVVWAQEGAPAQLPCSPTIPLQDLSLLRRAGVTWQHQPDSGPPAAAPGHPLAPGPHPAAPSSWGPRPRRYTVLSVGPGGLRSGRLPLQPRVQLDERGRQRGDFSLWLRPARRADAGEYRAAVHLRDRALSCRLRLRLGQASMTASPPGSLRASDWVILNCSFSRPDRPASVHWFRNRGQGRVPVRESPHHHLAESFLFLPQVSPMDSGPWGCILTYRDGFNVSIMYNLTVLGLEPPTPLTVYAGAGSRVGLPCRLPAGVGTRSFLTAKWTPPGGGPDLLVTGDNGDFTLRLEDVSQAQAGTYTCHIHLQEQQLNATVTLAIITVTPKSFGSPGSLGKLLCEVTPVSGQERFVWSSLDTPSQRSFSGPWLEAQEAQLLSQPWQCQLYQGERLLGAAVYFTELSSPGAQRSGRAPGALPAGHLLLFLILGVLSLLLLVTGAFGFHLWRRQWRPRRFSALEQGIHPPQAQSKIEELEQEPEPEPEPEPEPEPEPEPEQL
Protocol Details: FACS, 293T-hLAG3 cells
Quantity Measured: FACS signal at 0.5487 nM
# respond with the number and nothing more

sdAb No. 27-H1B3 (VHH, Humanized sdAb No. 27-H1; not shown: Fc part implied by anti-human IgG Fc detection) VHH: QVQLVESGGGLVQPGGSLRLSCAASGFTLDYYAIGWFRQAPGKEREGVSCIRSSDASTYYADSVKGRFTISSDNSKNTVYLQMNSLRAEDTAVYYCATDRYSDCRGPYENWGQGTMVTVSS
1420
sdAb No. 25 (VHH, Fc of the tested form not described; also called sdAb 25; sdAb #25; not shown: Fc part implied by anti-human Fc capture and anti-human IgG Fc detection) VHH: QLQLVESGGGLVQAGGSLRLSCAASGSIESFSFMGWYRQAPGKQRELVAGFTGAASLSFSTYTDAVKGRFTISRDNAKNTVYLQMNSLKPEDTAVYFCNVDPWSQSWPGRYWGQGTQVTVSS
618
sdAb No. 25-B7 (VHH, Humanized sdAb No. 25; not shown: Fc part implied by anti-human IgG Fc detection) VHH: QLQLVESGGGLVKPGGSLRLSCAASGSIESFSFMGWYRQAPGKQRELVAGFTGAASLSFSTYTDAVKGRFTISRDNAKNSVYLQMNSLRAEDTAVYFCNVDPWSQSWPGRYWGQGTTVTVSS
1110

Let us move to another entry and its FACS signal at 0.5487 nM.
(Q) What value of measured FACS signal at 0.5487 nM is listed for sdAb No. 27 (VHH, Fc of the tested form not described; also called sdAb 27; not shown: Fc part implied by anti-human Fc capture and anti-human IgG Fc detection) VHH: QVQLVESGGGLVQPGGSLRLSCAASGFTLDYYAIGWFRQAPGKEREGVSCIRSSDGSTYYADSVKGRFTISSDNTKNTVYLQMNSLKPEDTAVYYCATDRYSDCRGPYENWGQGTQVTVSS ?
(A) 1010
